Entries and their pKd
Target: T1, RSV prefusion F (preF), subtype B (respiratory syncytial virus subtype B)
T1 construct: also called Prefusion subtype B
Experiment: BLI, IgG
Scale explanation: pKd corresponds to minus log10 of a concentration expressed in moles per litre.

1. ADI-19457 (antibody, V domains shown, full-length IgG) VH: EVQLLESGGGLVKPGGSLRLSCAASGFTFSSYSMNWVRQAPGKGLEWVSSISSSSSYIYYADSVKGRFTISRDNAKNSLYLQMNSLRAEDTAVYYCARQGYCSGGSCYHIDYWGQGTLVTVSS VL: QSVVTQPPSVSGAPGQRVTISCTGSSSNIGAGYDVHWYQQLPGTAPKLLIYGNSNRPSGVPDRFSGSKSGTSASLAITGLQAEDEADYYCQSYDSSLSGWVFGGGTKLTVL    7.78
2. ADI-19484 (antibody, V domains shown, full-length IgG) VH: QVQLQESGSGLVKPSQTLSLTCVVSGGSISSGGNSWSWIRQPPGKGLEWIGYIYDSGNTYYNPSLKSRVTISVDRSKNQFSLKVSSVTAADTAVYYCARGAETGTTGWYDPWGQGTLVTVSS VL: DIRLTQSPSSLSASVGDRVTITCRASQTISSYLNWYQQKPGKAPRLLIYAASSLQSGVPSRFSGSGSGTDFTLTISSLQPEDFATYYCQQSYGTPRTFGQGTKVEIK    8.05

Continue with the binder presented below.
### Prompt Value lookup for pKd; key = ADI-14336 (antibody, V domains shown, full-length IgG; also called Ab 4) VH: EVQLLESGGEVKKPGASVKVSCKASGYTFTNYGISWVRQAPGQGLEWMGWISAYNGNTNYAQKLQGRVTMTTDTSTSTAYMEVRRLRSDDTAVYYCAREPPVIAAGDFQHWGQGTLVTVSS VL: DIVMTQTPLSLPVTLGQPASISCRSSQSLVHSDTNIYLSWFQQRPGQSPRRLIYKVSNRDSGVPDRFSGSGSGTDFTLRISRVEAEDVGVYYCMQGTHWPPDFGQGTRLEIK
### Response 8.58
